- System: VchCAST RNA-guided transposition machinery (E. coli BL21(DE3) host, lacZ target)
- TEST NAME: relative integration efficiency (T-RL orientation) vs wild-type transposon end (log2 (normalized fold change)); transposon end mutated: left end; higher = more efficient transposition
Class Met: relative integration efficiency (log2) at least -3. Class Not met: relative integration efficiency (log2) below -3.

stdin: # check: relative integration efficiency (log2) of AATGTTGTTGATGCAACCATAAAGTGATATTTAATAATTATTTATAATCAGCAACTTAACCACAAAACAACCATATATTGATATCTCACAAAACAACCATAAGTTGATCGGGGGTGTCCGATCTGATTTCAGCAAAACTACTGCAGTAAGAA is greater than or equal to -3
stdout: Met

stdin: Reported relative integration efficiency (log2) reaches at least -3 for AATGTTGTTGATGTGTTGATGCAACCATAAAGTGATATTTAATAATTATTTATAATCAGCAACTTAACCACAAAACAACCATATATTGATATCTCACAAAACAACCATAAGTTGATATTTTTGTGAATCGAGTATTTCAGCAAAACTACTGC ?
stdout: Met

stdin: // inclusive: relative integration efficiency (log2) at least -3? input: AATGTTGTTGATGCAACCATAAAGTGATATTTAGACGTCCTTAACTCTGGCAGGGAGTTCAAGGGACCAACCATATATTGATATCTCACAAAACAACCATAAGTTGATATTTTTGTGAATCGAGTATTTCAGCAAAACTACTGCAGTAAGAA
stdout: Met

stdin: Is relative integration efficiency (log2) for AATGTTGTTGATGCAACCATAAAGTGATATTTAATAATTATTTATAATCAGCAACTTAACCACAAAACAACCATATATTGATATCTCACAACCATAAGTTGATATTTTTGTGAATCGAGTATTTCAGCAAAACTACTGCAGTAAGAAAGTTA at or above -3?
stdout: Not met

stdin: Hi team, for AATGTTGTTGATGCAACCATAAAGTGATATTTAATAATTATTTATAATCAGCAACTTAACACACCCCACCAACGCGCGGTCGCGAGACACCCCACCAACGCCTGGTCGCGGGGGTGTCCGATCTGATTTCAGCAAAACTACTGCAGTAAGAA , is the recorded relative integration efficiency (log2) at or above -3?
stdout: Not met

stdin: Confirm if relative integration efficiency (log2) reported for the sequence AATGTTGTTGATGCAACCATAACTGTCGCGGGCCGCCGGCGGGCGCCGACTACCAGGCCAACACCCCACCAACGCGCGGTCGCGAGACACCCCACCAACGCCTGGTCGCGGGGGTGTCCGATCTGATTTCAGCAAAACTACTGCAGTAAGAA is -3 or above.
stdout: Not met

stdin: Item AATGTTGTTGATGTAATTATCATTTTATGGTTGATAATTATTTATAATCAGCAACTTAACCACAAAATAATTATCATTTTATGGTTGACAAAATAATTATCATTTTATGGTTGTGTGAATCGAGTATTTCAGCAAAACTACTGCAGTAAGAA with relative integration efficiency (log2) of -3 or above?
stdout: Not met

stdin: Entry AATGTTGTTGATGCAACCATAAAGTGATATTTAATAATTATTTATAATCAGCAACTTAACCACAAAACAACCATATATTGATATCTCACACAACCATAAGTTGATATTTTTGTGAATCGAGTATTTCAGCAAAACTACTGCAGTAAGAAAGT : is its relative integration efficiency (log2) no less than -3?
stdout: Not met

---

For each of the sequences below, state its relative integration efficiency (log2).
- System: VchCAST RNA-guided transposition machinery (E. coli BL21(DE3) host, lacZ target)
- TEST NAME: relative integration efficiency (T-RL orientation) vs wild-type transposon end (log2 (normalized fold change)); transposon end mutated: right end (5 bp flank + 75 bp right end); higher = more efficient transposition
Give only the figure.

stdin: Answer with the recorded relative integration efficiency (log2) of ACATTTGTAAAAAAAACCATACGTTGATTTTACGAAACCATACGCTGAAATAAAAACAACCATACCTTGAAATTGCTTATGATCATAGTCAGACCAACATTGCTACGACCCGTATTCGCACCGACAC only.
stdout: -8.13

stdin: Look up and state reported relative integration efficiency (log2) for ACATTTGTTGATACAACCATAAAATGATAATTACAAAACGCCCGGTCGCCGGCGACACAAACGCCCGGTCGCGGTAAGAGGATCATAGTCAGACCAACATTGCTACGACCCGTATTCGCACCGACAC
stdout: -2.05

stdin: Give relative integration efficiency (log2) for the following sequence: ACATTTGTTGATACAACCATATATTGATATCTCCAACCATAAAGTGATATTTATCACACCCATAAATTGATAATTACTCTGATCATAGTCAGACCAACATTGCTACGACCCGTATTCGCACCGACAC
stdout: -0.578

stdin: Kindly indicate its recorded relative integration efficiency (log2). Item: ACATTTGTTGATACAACCATAAAATGATAATTACAACCATAAAGTGATATTTATCAGTGGGTATTTAACTATAACGCTCTGATCATAGTCAGACCAACATTGCTACGACCCGTATTCGCACCGACAC
stdout: -0.586

stdin: Identify measured relative integration efficiency (log2) associated with ACATTTCTTGATACAACCATAAAATGATAATTACACCCATAAATTCATAATTATCACACCCAATTTAACTATAACGCTCTGATCATAGTCAGACCAACATTGCTACGACCCGTATTCGCACCGACAC
stdout: -2.79

stdin: Give relative integration efficiency (log2) for the following sequence: ACATTTGTTGATATCAACCATAAAATGATAATTACACCCATAAATTGATAATTATCACACCCATAAATTGATATTGCCTCTGATCATAGTCAGACCAACATTGCTACGACCCGTATTCGCACCGACA
stdout: -0.0259

stdin: Answer with the recorded relative integration efficiency (log2) of ACATTTGTTGATACAACCATAAAATGATAATTACACCCATAAATTGATAATTATCACACCCATAAATTGATATTGCCTCTGATCGTTTTAAGGATGACTTCAGTCGCGCCGTACTTCGCACCGACAC only.
stdout: -0.207

stdin: State its relative integration efficiency (log2) for this sequence: ACATTTGTCGATACAACCCTAAAATGATAATTACACCCATAAATTCATCATTATCACCCCCAATTTAACTATAACGCTCTGATCATAGTCAGACCAACATTGCTACGACCCGTATTCGCACCGACAC
stdout: -4.56

stdin: Give the measured relative integration efficiency (log2) for ACATTTGTGGATCCAACCATAAAATGATAATTACACCCATAAATTCATAATTATCACACCCAATTTAACTATAACGCTCTGATCATAGTCAGACCAACATTGCTACGACCCGTATTCGCACCGACAC
stdout: -2.04

stdin: For the sequence ACATTTGTTGATACAACCATAAAATGATAAGGCACAAACGCCCGGTCGCCGGCGACACAAACGCCCGGTCGCGGTAAGAGGATCATAGTCAGACCAACATTGCTACGACCCGTATTCGCACCGACAC , give its measured relative integration efficiency (log2) value.
stdout: -2.28

stdin: Specify reported relative integration efficiency (log2) for the sequence shown: ACATTTGTTGATACAACCATAAAATGATAATTACACCCATAAATTGATAATTATCACACCCATAAATTGATATTGCCTCTGATCATAAATATATAAATTAATTATTAAATTAGTCAGGCACCGACAC
stdout: 1.34

stdin: Specify relative integration efficiency (log2) for ACATTTGTTGATACAACCATAAAATCATCATTACCCCCATCAATTGATAATTATCACACCCCATTTAACTATAACGCTCTGATCATAGTCAGACCAACATTGCTACGACCCGTATTCGCACCGACAC and stop.
stdout: -5.76

stdin: Please list relative integration efficiency (log2) recorded for the sequence ACATTTGTTGATACAACCATAAAAAGATAATTACACCCATAAATTGATAATTGTGACACCGAATTTAACTATAACGCTCTGATCATAGTCAGACCAACATTGCTACGACCCGTATTCGCACCGACAC
stdout: -1.15

stdin: Specify reported relative integration efficiency (log2) for the sequence shown: ACATTTGTTGATACAACACGCCCCGTCGCCGGCACAAACGCCCGGTCGCCGGCGACACAAACGCCCGGTCGCGGTAAGAGGATCATAGTCAGACCAACATTGCTACGACCCGTATTCGCACCGACAC
stdout: -6.42

stdin: Item ACATTTGTTGATACACCCATAAATTGATATTGCCACCCATAAATTGATAATTATCACAACCATAAGTTGATATTTTCTCTGATCATAGTCAGACCAACATTGCTACGACCCGTATTCGCACCGACAC : provide relative integration efficiency (log2)
stdout: -0.676

stdin: State, in one line, measured relative integration efficiency (log2) of ACATTTGTTGATACAACCATAAAATGATAATTACCCCCATAAATTGATAATTATCCCACCCAATTTAACTATAACGCTCTGATCATAGTCAGACCAACATTGCTACGACCCGTATTCGCACCGACAC
stdout: -1.15

stdin: Let me know recorded relative integration efficiency (log2) for ACATTTGTTGATACAACCATAAAATGATAATTACACCCATAAATTGATACGTATCACACCCATAAATTGATATTGCCTCTGATCATAGTCAGACCAACATTGCTACGACCCGTATTCGCACCGACAC , thanks.
stdout: -0.704

stdin: Report relative integration efficiency (log2), nothing else, for this sequence: ACATTTGTTGATACAACCATAAAATGATAATTACACCCATAAATTGATAATTATCACACCCATAAATTGATATTGCGAGAGATCATAGTCAGACCAACATTGCTACGACCCGTATTCGCACCGACAC
stdout: -0.286

stdin: Return relative integration efficiency (log2) (reported value) for this sequence: ACATTTGTTGATACAACCATAAAATGATAATTACACCCATAAATTGATAATTATCAGTGGGTATTTAACTATAACGCTCTGATCATAGTCAGACCAACATTGCTACGACCCGTATTCGCACCGACAC
stdout: -0.681

stdin: Report relative integration efficiency (log2), nothing else, for this sequence: ACATTTGTTGATACAACCATAAAATGATAATTACACCCATAAATTGATAATTATCACACCCATAAATTGATATTGCCTCTGATCATTTACTTTTGGTTACATATTTAGTCAGACCAAGCACCGACAC
stdout: 0.0213
